Where these numbers come from: patent US10231954B2

Measured residual kinase activity, MSK1 of individual entries
assayedTarget: MSK1 (Homo sapiens)
Sequence (O75582 whole entry, species assumed): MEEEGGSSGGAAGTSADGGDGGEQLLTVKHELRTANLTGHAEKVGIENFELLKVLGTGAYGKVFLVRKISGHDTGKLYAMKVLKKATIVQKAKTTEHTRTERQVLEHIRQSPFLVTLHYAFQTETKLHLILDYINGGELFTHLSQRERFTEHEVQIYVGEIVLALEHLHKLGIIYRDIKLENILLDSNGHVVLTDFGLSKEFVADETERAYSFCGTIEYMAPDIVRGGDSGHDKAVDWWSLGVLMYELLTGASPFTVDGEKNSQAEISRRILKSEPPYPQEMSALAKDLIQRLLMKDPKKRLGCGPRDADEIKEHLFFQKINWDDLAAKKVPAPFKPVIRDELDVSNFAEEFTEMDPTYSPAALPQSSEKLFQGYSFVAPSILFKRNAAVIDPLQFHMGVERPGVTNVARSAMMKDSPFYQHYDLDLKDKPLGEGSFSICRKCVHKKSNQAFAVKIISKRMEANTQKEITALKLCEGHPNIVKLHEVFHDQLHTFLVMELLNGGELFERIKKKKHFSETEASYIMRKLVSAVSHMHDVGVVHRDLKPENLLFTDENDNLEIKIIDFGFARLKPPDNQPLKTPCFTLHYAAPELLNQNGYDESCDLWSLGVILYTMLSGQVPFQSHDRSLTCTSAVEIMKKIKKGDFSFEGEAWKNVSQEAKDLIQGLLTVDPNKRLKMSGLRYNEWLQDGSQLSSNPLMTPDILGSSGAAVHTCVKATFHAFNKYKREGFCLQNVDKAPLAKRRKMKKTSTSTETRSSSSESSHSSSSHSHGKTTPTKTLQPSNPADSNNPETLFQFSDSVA
procedureSummary: Kinase profiling MSK1
Assay type: biochemical
testConditions: 100 micromolar inhibitor concentration; 100 is no change
testReadout: residual kinase activity, MSK1

[[record]]
smilesnotation = "CC(=O)Nc1nc2ccc(F)cc2s1"
testreadout = "residual kinase activity, MSK1"
obsvalue = 88

[[record]]
smilesnotation = "COC(=O)c1cccc(C(=O)Nc2nc3cc(OC)ccc3s2)c1"
testreadout = "residual kinase activity, MSK1"
obsvalue = 88

[[record]]
smilesnotation = "COc1ccc2nc(NC(=O)c3ccccc3)sc2c1"
testreadout = "residual kinase activity, MSK1"
obsvalue = 90

[[record]]
smilesnotation = "O=C(Nc1nc2ccc(O)cc2s1)c1ccncc1"
testreadout = "residual kinase activity, MSK1"
obsvalue = 92

[[record]]
smilesnotation = "O=C(Nc1nc2cc(O)ccc2s1)c1cccnc1"
testreadout = "residual kinase activity, MSK1"
obsvalue = 92

[[record]]
smilesnotation = "O=C(Nc1nc2ccc(O)cc2s1)c1ccccn1"
testreadout = "residual kinase activity, MSK1"
obsvalue = 90


* * *

assayedTarget: MKK1 (Homo sapiens, UniProt Q02750)
Sequence (Q02750 whole entry, species assumed): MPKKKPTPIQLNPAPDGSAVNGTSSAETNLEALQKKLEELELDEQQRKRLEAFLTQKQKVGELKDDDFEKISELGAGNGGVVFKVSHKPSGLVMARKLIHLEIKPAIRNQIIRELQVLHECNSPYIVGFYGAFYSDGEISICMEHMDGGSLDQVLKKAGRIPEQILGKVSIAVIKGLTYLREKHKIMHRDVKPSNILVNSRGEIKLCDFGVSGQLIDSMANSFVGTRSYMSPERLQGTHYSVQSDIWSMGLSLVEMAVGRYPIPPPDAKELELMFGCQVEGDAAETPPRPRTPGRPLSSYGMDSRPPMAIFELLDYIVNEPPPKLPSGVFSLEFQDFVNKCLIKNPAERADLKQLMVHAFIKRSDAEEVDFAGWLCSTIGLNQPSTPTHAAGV
procedureSummary: Kinase profiling MKK1
Type: biochemical
testConditions: 100 micromolar inhibitor concentration; 100 is no change; read-out: residual kinase activity, MKK1
Measured remaining activity at 100 µM of individual entries
testReadout: remaining activity at 100 µM

[[record]]
smilesnotation = "CC(=O)Nc1nc2cc(F)ccc2s1"
obsvalue = "87%"

[[record]]
smilesnotation = "CC(=O)Nc1nc2ccc([N+](=O)[O-])cc2s1"
obsvalue = "62%"

[[record]]
smilesnotation = "CC(=O)Nc1nc2ccc(C#N)cc2s1"
obsvalue = "34%"


* * *

assayedTarget: SGK1 (Homo sapiens, UniProt O00141)
Sequence (O00141 whole entry, species assumed): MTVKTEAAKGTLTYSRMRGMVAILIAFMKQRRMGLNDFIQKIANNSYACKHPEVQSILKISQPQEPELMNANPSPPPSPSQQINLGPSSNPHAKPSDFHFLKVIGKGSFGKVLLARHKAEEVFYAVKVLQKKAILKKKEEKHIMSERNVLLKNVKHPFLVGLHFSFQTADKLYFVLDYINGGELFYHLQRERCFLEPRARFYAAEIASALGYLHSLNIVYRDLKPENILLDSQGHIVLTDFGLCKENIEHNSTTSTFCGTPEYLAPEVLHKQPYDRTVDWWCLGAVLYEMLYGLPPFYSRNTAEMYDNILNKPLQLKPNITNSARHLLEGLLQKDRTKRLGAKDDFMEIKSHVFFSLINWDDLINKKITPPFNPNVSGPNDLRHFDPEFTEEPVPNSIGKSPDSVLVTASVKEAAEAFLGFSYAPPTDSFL
procedureSummary: Kinase profiling SGK1
Assay type: biochemical
testConditions: 100 micromolar inhibitor concentration; 100 is no change
testReadout: residual kinase activity, SGK1

[[record]]
smilesnotation = "O=C(Nc1nc2ccc(O)cc2s1)c1ccncc1"
assayedtarget = "SGK1 (Homo sapiens, UniProt O00141)"
obsvalue = 60

[[record]]
smilesnotation = "CC(=O)Nc1ccc(C(=O)Nc2nc3ccc(O)cc3s2)cc1"
assayedtarget = "SGK1 (Homo sapiens, UniProt O00141)"
obsvalue = 59

[[record]]
smilesnotation = "O=C(Nc1nc2cc(O)ccc2s1)c1ccncc1"
assayedtarget = "SGK1 (Homo sapiens, UniProt O00141)"
obsvalue = 84

[[record]]
smilesnotation = "COc1ccc2sc(NC(=O)c3ccccc3)nc2c1"
assayedtarget = "SGK1 (Homo sapiens, UniProt O00141)"
obsvalue = 60

[[record]]
smilesnotation = "O=C(Nc1nc2cc(O)ccc2s1)c1cccnc1"
assayedtarget = "SGK1 (Homo sapiens, UniProt O00141)"
obsvalue = 86


* * *

assayedTarget: MKK1 (Homo sapiens, UniProt Q02750)
procedureSummary: Kinase profiling MKK1
Type: biochemical
testConditions: 100 micromolar inhibitor concentration; 100 is no change
Description: Any value less that 25 is considered to be highly significant inhibition.
Measured residual kinase activity, MKK1 of individual entries
testReadout: residual kinase activity, MKK1

[[record]]
compound = "COC(=O)c1cccc(C(=O)Nc2nc3ccc(F)cc3s2)c1 [Compound 03-110]"
testreadout = "residual kinase activity, MKK1"
obsvalue = 70

[[record]]
compound = "O=C(Nc1nc2cc(O)ccc2s1)c1cccnc1 [Compound 03-33]"
testreadout = "residual kinase activity, MKK1"
obsvalue = 89

[[record]]
compound = "COc1ccc2sc(NC(=O)c3ccccc3)nc2c1 [Compound 03-95]"
testreadout = "residual kinase activity, MKK1"
obsvalue = 92

[[record]]
compound = "O=C(Nc1nc2cc(O)ccc2s1)c1ccncc1 [Compound 03-11]"
testreadout = "residual kinase activity, MKK1"
obsvalue = 88

[[record]]
compound = "CC(=O)Nc1ccc(C(=O)Nc2nc3cc(O)ccc3s2)cc1 [MS:LY-2-87]"
testreadout = "residual kinase activity, MKK1"
obsvalue = 69

